# Assay system: hERG (KCNH2) (Homo sapiens, UniProt Q12809)
# Sequence (Q12809 whole entry): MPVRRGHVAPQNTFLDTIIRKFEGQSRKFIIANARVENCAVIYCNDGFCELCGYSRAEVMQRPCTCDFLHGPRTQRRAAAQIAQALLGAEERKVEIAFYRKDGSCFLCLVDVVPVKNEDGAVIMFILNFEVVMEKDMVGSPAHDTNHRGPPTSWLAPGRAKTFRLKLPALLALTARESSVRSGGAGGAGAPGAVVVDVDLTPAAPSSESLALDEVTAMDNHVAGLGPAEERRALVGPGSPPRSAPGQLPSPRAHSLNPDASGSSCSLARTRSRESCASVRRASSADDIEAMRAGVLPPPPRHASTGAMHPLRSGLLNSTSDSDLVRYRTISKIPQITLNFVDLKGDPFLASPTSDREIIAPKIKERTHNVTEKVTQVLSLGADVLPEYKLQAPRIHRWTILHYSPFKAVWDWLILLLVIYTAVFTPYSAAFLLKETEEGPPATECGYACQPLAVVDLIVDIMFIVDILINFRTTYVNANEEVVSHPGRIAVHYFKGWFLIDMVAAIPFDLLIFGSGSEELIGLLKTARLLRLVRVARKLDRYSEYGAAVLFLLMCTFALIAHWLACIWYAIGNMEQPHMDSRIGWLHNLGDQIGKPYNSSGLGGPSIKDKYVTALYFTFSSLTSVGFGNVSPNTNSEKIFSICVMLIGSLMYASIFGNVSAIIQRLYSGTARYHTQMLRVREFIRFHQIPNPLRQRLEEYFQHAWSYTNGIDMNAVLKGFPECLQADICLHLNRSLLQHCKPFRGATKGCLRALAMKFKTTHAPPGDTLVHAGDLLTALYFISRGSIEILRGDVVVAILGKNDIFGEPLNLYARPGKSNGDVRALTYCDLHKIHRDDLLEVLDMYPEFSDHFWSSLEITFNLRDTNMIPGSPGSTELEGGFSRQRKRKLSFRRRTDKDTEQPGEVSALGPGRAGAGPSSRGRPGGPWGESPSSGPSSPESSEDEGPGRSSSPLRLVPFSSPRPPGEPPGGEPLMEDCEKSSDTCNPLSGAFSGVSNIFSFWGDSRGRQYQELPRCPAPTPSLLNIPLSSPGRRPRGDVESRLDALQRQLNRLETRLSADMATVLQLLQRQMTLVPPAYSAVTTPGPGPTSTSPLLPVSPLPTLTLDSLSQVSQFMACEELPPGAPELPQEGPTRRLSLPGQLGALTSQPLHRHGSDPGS
# Assay overview: in vitro
# Condition: CHO cells expressing human ERG
# Description: Inhibition of human ERG expressed in CHO cells at 40 uM at -80 mV holding potential after 2.5 mins by Qpatch clamp assay relative to control
Observation type: inhibition at 2.5 min, 40 µM (%)
Reply with just the number (in %).

Past entries and their recorded results:
>>> recorded_number("Oc1ccc(Cn2nnc3ccccc32)c2cccnc12")
24
>>> recorded_number("Oc1ccc(Cn2ccnc2)c2cccnc12")
10
>>> recorded_number("Oc1ccc(Cn2cnc(F)c2)c2cccnc12")
10
>>> recorded_number("Oc1ccc(Cn2cccn2)c2cccnc12")
8.3

Please report the measured inhibition at 2.5 min, 40 µM for `Oc1ccc(Cn2cnc3ccccc32)c2cccnc12`
33

----------
Form field: pIC50 (one value per entry).
# System: MM1.S
# Assay overview: Antiproliferative activity against human MM1S cells after 72 hrs by CellTiter Glo luminescent assay
# Format: functional, cell-based
On this scale, pIC50 is minus log10 of a concentration expressed in M (mol/L).

>>> recorded_number("Oc1ccc(Cn2c(-c3cscn3)nc3ccccc32)c2cccnc12")
5.68
>>> recorded_number("O=C(Oc1ccc(Cn2ccnc2)c2cccnc12)c1ccccc1")
5.54
>>> recorded_number("Oc1ccc(Cn2cnc3ccccc32)c2cccnc12")
5.52
>>> recorded_number("Oc1ccc(Cn2cccn2)c2cccnc12")
6.15
>>> recorded_number("Oc1ccc(Cn2nnc3ccccc32)c2cccnc12")
6.52

Shifting focus to the compound that follows.
Tell me measured pIC50 for `CC(C)(C)OC(=O)Oc1ccc(Cn2ccnc2)c2cccnc12` please.
5.74

----------
# Assay system: Bromodomain-containing protein 4 (Homo sapiens, UniProt O60885)
# Assay overview: Inhibition of BRD4 BD1 (unknown origin) at 10 uM using biotin labelled NeC: SGRG-K(Ac)-GG-K(Ac)-GLG-K(Ac)-GGA-K(Ac)-RHRKVGG-K as substrate preincubated for 15 mins followed by substrate addition measured after 30 mins by alpha screen assay relative to control
Entries and their inhibition values follow.
Value expressed in %; do not type the unit.

Note inhibition for the compound shown: `CC1=NN(c2ccc3cccc(O)c3n2)C(=O)C1`
99

// fetch inhibition given entry `O=C(Cc1ccccc1)N/N=C/c1ccc(O)c2ncccc12`
82

Given `O=[N+]([O-])c1cc([N+](=O)[O-])c2cccnc2c1O` , respond with its inhibition.
27

Tell me its inhibition given `Cc1cc(C)c2ccc(C=O)nc2c1O` as the entry.
-0

----------
# Assay system: Bromodomain-containing protein 4 (Homo sapiens, UniProt O60885)
Friendly reminder: ΔTm below 4 °C is met, at or above is not met.

>>> answer_label("Oc1ccc(CN2CCn3c(nnc3C(F)(F)F)C2)c2cccnc12")
"not met"
>>> answer_label("Cc1ccc2c(Cn3cnc(F)c3)ccc(OC(=O)OC(C)(C)C)c2n1")
"not met"
>>> answer_label("O=C(Oc1ccc(Cn2ccnc2)c2cccnc12)c1ccccc1")
"met"
>>> answer_label("Oc1ccc(Cn2nnc3ccccc32)c2cccnc12")
"not met"
>>> answer_label("Oc1ccc(Cn2cnc3ccccc32)c2cccnc12")
"met"

Quick check: ΔTm of `CC(=O)Oc1ccc(Cn2ccnc2)c2cccnc12` under 4 °C?
not met

----------
# Assay system: Bromodomain-containing protein 4 (Homo sapiens)
# Assay overview: Inhibition of recombinant full length human N-terminal His6-tagged BRD4 (2 to 1362 residues) expressed in baculovirus infected insect cells using histone H4 peptide as substrate by alpha screen assay
Below, each of the compounds is paired with its reported pIC50 value.
Scale explanation: pIC50 corresponds to minus log10 of a concentration expressed in moles per litre.

>>> recorded_number("COc1nnc2ccc(N3CCC(c4ccc(OCCN5CCN(C)C(=O)C5C)cc4)CC3)nn12 (centres undefined)")
8.77
>>> recorded_number("N=C(N)NCCC[C@H](NC(=O)CCC(=O)OC[N+]1(c2cc(=O)c3cccc(-c4ccccc4)c3o2)CCOCC1)C(=O)NCC(=O)N[C@@H](CC(=O)O)C(=O)N[C@@H](CO)C(=O)[O-] [SF-1126]")
5.28

Shift focus to the following entry.
# return pIC50 of `Cc1sc2c(c1C)C(c1ccccc1)=N[C@@H](CC(=O)OC(C)(C)C)c1nnc(C)n1-2` (system: Bromodomain-containing protein 4 (Homo sapiens))
7.48

----------
molecules and their reported inhibition
# Assay system: Bromodomain-containing protein 4 (Homo sapiens, UniProt O60885)
# Assay overview: Inhibition of BRD4 BD1 (unknown origin) at 50 uM using biotin labelled NeC: SGRG-K(Ac)-GG-K(Ac)-GLG-K(Ac)-GGA-K(Ac)-RHRKVGG-K as substrate preincubated for 15 mins followed by substrate addition measured after 30 mins by alpha screen assay relative to control
Give just the number in %; leave the unit off.

The examples below pair each entry with its known result.
>>> recorded_number("O=[N+]([O-])c1cccc(-c2ccc(/C=C/c3ccc4cccc(O)c4n3)o2)c1")
-0
>>> recorded_number("Oc1cccc2ccc(/C=C/c3cccc(OCc4ccccc4Cl)c3)nc12")
-0
>>> recorded_number("O=C(C[n+]1cccc2cccc(O)c21)c1ccc(F)cc1")
-0

Consider the molecule `Oc1ccc(CNc2ccccc2Br)c2cccnc12` and give its recorded inhibition.
46

Name the recorded inhibition of the item COC(=O)C(O)(c1cc(C)c2cccnc2c1O)C(F)(F)F (stereo not given) in your answer.
97

----------
# Assay system: Bromodomain-containing protein 4 (Homo sapiens)
# Assay overview: Inhibition of BRD4 BD1 (unknown origin) at 10 uM using biotin labelled NeC: SGRG-K(Ac)-GG-K(Ac)-GLG-K(Ac)-GGA-K(Ac)-RHRKVGG-K as substrate preincubated for 15 mins followed by substrate addition measured after 30 mins by alpha screen assay relative to control
Observation type: inhibition (%)
I only need the number, in %, no unit after it.

Examples with their reported inhibition follow.
>>> recorded_number("O=S(=O)(Nc1ccc(O)c2ncccc12)c1ccc(Cl)cc1")
-0
>>> recorded_number("CC(C)(C)OC(=O)Oc1ccc(Cn2c(-c3cscn3)nc3ccccc32)c2cccnc12")
11
>>> recorded_number("Nc1cc(S(=O)(=O)O)c2cccnc2c1O")
-0

Indicate its recorded inhibition; the compound in question is `Cn1c(/N=N/c2ccc(O)c3ncccc23)nc2ccccc21`
100

Item `Cc1cc2ncn(Cc3ccc(O)c4ncccc34)c2cc1C` : provide inhibition
23

Input `Oc1cccc2ccc(N3CCCCC3)nc12` , output reported inhibition.
-0

Provide inhibition value for the following compound: `Cc1ccc2c(Cn3ccnc3)ccc(O)c2n1`
41

Provide inhibition value for the following compound: `Cc1cc(C)c2ccc(/C=N/O)nc2c1O`
6

Report measured inhibition; entry is `Oc1ccc(CSc2nc3ccccc3s2)c2cccnc12`
18

----------
Reported ΔTm values, Bromodomain-containing protein 4 (Homo sapiens).
Provide only the numeric value, understood in °C.

Examples from the recorded data:
>>> recorded_number("Oc1ccc(Cn2cnc(F)c2)c2cccnc12")
4.6
>>> recorded_number("Oc1ccc(Cn2ccnc2)c2cccnc12")
3.9
>>> recorded_number("Nc1ccc2c(Cn3ccnc3)ccc(O)c2n1")
3.8
>>> recorded_number("Oc1ccc(COn2nnc3ccccc32)c2cccnc12")
4.4
>>> recorded_number("CC(C)(CCl)C(=O)Oc1ccc(Cn2ccnc2)c2cccnc12")
2.4
>>> recorded_number("Oc1ccc(Cn2c(-c3cscn3)nc3ccccc32)c2cccnc12")
4.7

Give reported ΔTm value for `CC(=O)Oc1ccc(Cn2cnc(F)c2)c2cccnc12`
4.7

----------
Recorded pIC50, one value per entry.
# Assay system: Bromodomain-containing protein 4 (Homo sapiens)
# Assay overview: Inhibition of BRD4 BD1 (unknown origin) using biotin labelled NeC: SGRG-K(Ac)-GG-K(Ac)-GLG-K(Ac)-GGA-K(Ac)-RHRKVGG-K as substrate preincubated for 15 mins followed by substrate addition measured after 30 mins by alpha screen assay
The read-out pIC50 is expressed as -log10 of concentration in moles per litre.

>>> recorded_number("Oc1ccc(CSc2ccccc2)c2cccnc12")
5.52
>>> recorded_number("O=C(Oc1ccc(Cn2ccnc2)c2cccnc12)c1ccccc1")
7.17
>>> recorded_number("Oc1ccc(CN2CCCCCC2)c2cccnc12")
6.17
>>> recorded_number("O=C(Cc1ccccc1)N/N=C/c1ccc(O)c2ncccc12")
5.33
>>> recorded_number("CC(C)(C)OC(=O)Oc1ccc(Cn2ccnc2)c2cccnc12")
6.75

# return recorded pIC50 for entry `CC(=O)Oc1ccc(Cn2ccnc2)c2cccnc12`
7.21

Supply pIC50 value. Item: `O=C(CCc1ccccc1)N/N=C/c1ccc(O)c2ncccc12`
5.37

Name the recorded pIC50 of the compound listed here: `Oc1ccc(Cn2ccnc2)c2cccnc12`
7.00

Recall and state the measured pIC50 for `Oc1ccc(Cn2cnc(F)c2)c2cccnc12` .
7.15

Consider the compound `O=[N+]([O-])c1ccc2c(c1)ncn2Cc1ccc(O)c2ncccc12` . State its measured pIC50.
6.97

Specify pIC50 for `Oc1ccc(CN2CCn3c(nnc3C(F)(F)F)C2)c2cccnc12` and stop.
7.17

Give pIC50 for `Oc1ccc(COn2nnc3ccccc32)c2cccnc12`
7.09

Return reported pIC50. Input compound: `CC1=NN(c2ccc3cccc(O)c3n2)C(=O)C1`
6.00

For the compound `Oc1ccc(Cn2cnc3ccccc32)c2cccnc12` , report pIC50.
6.47

Report pIC50 for `Oc1ccc(Cn2nnc3ccccc32)c2cccnc12`
6.81

// fetch pIC50 given entry `Nc1ccc2c(Cn3ccnc3)ccc(O)c2n1`
6.53

Specify measured pIC50 for CCOC(=O)C1CCCN(Cc2ccc(O)c3ncccc23)C1 (stereo not given) .
6.13

Tell me measured pIC50 for `Oc1ccc(Cn2cccn2)c2cccnc12` please.
7.12

Assign pIC50 to the following record: `CC(=O)Oc1ccc(Cn2cnc(F)c2)c2cccnc12`
7.15
